System: SNB-19 CNS
MEASUREMENT NOTES: NCI-60 one-dose screen, 48 h
CONDITION NOTES: 10 µM unless noted
Compounds without any hit were thinned out: in the full panel of roughly 83,000, 20% have a hit. The source made the active and inactive calls. The calls were made as follows: active = growth percent below 10; inactive = the rest.
Result category, one only: active, inactive

**Q:** GET /call?item= `O=C(O)c1ccc[n+](CC(=O)N2CCN(c3cc4c(cc3F)c(=O)c(C(=O)O)cn4C3CC3)CC2)c1` returns the recorded outcome of this test.
**A:** inactive

**Q:** GET /call?item= Fc1ccc(C2CC(c3cccc(Nc4ccncc4)c3)=NN2c2ccccc2)cc1 (stereo not given) returns the recorded outcome of this test.
**A:** inactive

**Q:** GET /call?item= Cc1ccc(C2CC(c3cccc(Nc4ccncc4)c3)=NN2c2ccccc2)cc1 (stereo not given) returns the recorded outcome of this test.
**A:** active

**Q:** GET /call?item= `O=CNc1cc(Cl)cc(Cl)c1` returns the recorded outcome of this test.
**A:** inactive

**Q:** GET /call?item= `Cc1n[nH]c(C)c1-c1c(C)n[nH]c1C` returns the recorded outcome of this test.
**A:** inactive

**Q:** GET /call?item= CC(N)C(=O)NNc1n[nH]c(=S)n1N (stereo not given) returns the recorded outcome of this test.
**A:** inactive

**Q:** GET /call?item= `O=C1NC(=O)C(=Cc2cn(Cc3ccccn3)c3ccccc23)C(=O)N1` returns the recorded outcome of this test.
**A:** inactive

**Q:** GET /call?item= `O=C(O)CNC(=O)CN1C(=O)c2ccccc2C1=O` returns the recorded outcome of this test.
**A:** inactive

**Q:** GET /call?item= `CC(=O)O[C@]1(C(C)=O)CC[C@H]2[C@@H]3C=C(Cl)C4=CC(=O)CC[C@]4(C)[C@H]3CC[C@@]21C` returns the recorded outcome of this test.
**A:** inactive

**Q:** GET /call?item= `Cc1ccc2nc3c(cc2c1)CSc1nnc(-c2ccc[nH]c2=S)n1N3` returns the recorded outcome of this test.
**A:** inactive

**Q:** GET /call?item= `COc1ccccc1/C=C1\Oc2cc(OCCCN3CCCC3)ccc2C1=O` returns the recorded outcome of this test.
**A:** inactive

**Q:** GET /call?item= `C=C(C)[C@H]1CC/C(C)=C/CC[C@]2(C)O[C@H]2CC/C(COC(=O)[C@@H](OC(C)=O)[C@H](NC(=O)c2ccccc2)c2ccccc2)=C\[C@@H]1O` returns the recorded outcome of this test.
**A:** inactive

**Q:** GET /call?item= `CC(C)(C)OC(=O)N1C/C(=C\c2ccoc2)C(=O)/C(=C/c2ccoc2)C1` returns the recorded outcome of this test.
**A:** inactive

**Q:** GET /call?item= `CCOC(=O)C1=C(C)NC(C)=C(C(=O)OCC)C1c1cc(Br)c(O)c(OC)c1` returns the recorded outcome of this test.
**A:** inactive

**Q:** GET /call?item= `COc1ccc(/C=C\c2nc3ccccc3s2)cc1OP(=O)(O)O` returns the recorded outcome of this test.
**A:** inactive

**Q:** GET /call?item= `C=C(C)[C@@H]1CC[C@]2(C=O)CC[C@]3(C)[C@H](CC[C@@H]4[C@@]5(C)CCCNC(C)(C)[C@@H]5CC[C@]43C)[C@@H]12` returns the recorded outcome of this test.
**A:** inactive

**Q:** GET /call?item= `O=S(=O)(NCCNc1nccc(-c2c(-c3ccc(F)c(O)c3)nc3occn23)n1)c1ccccc1` returns the recorded outcome of this test.
**A:** inactive

**Q:** GET /call?item= COc1ccc2c(c1)OC1=C(C(=O)OC1)C2c1cc(OC)c(OC)c(OC)c1 (stereo not given) returns the recorded outcome of this test.
**A:** inactive

**Q:** GET /call?item= `Nc1nc(N)nc(NCc2ccccc2)n1` returns the recorded outcome of this test.
**A:** inactive

**Q:** GET /call?item= `COc1ccc2nc(N=Nc3c(O)ccc4ccccc34)sc2c1` returns the recorded outcome of this test.
**A:** inactive
